Provide the reported Ki of each item.
- assay system: Neuronal acetylcholine receptor subunit alpha-4 (Rattus norvegicus, UniProt P09483)
- Sequence (P09483 whole entry): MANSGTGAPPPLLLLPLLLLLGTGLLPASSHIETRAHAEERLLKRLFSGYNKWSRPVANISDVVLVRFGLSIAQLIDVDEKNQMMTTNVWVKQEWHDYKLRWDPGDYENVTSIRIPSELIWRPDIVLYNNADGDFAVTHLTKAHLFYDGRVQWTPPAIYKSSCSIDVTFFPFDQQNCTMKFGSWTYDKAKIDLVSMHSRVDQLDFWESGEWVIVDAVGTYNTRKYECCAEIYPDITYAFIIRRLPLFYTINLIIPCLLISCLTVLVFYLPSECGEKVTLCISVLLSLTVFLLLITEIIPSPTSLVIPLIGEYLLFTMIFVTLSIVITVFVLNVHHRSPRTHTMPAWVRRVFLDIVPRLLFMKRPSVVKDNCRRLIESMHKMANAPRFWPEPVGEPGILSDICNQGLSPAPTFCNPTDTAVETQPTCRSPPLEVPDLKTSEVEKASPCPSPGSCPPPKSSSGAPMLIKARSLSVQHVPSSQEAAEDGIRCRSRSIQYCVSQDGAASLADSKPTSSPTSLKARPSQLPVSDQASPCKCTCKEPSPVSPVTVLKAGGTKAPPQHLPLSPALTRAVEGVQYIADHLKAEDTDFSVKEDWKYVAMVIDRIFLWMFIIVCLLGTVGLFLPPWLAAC

Below, each entry is followed by its recorded Ki result.
Please report the recorded Ki for CNC1(C)C2CCC(C2)C1(C)C (stereo not drawn) .
> 10 µM

And then Ic1ccc(C2CC3CCC2N3)cn1 (stereo not drawn) [IPH] , what is it?
0.00015 µM

Let's switch to this compound now.
Please report the recorded Ki for C[N+](C)(C)CCO [2-hydroxy-N,N,N-trimethylethanaminium] .
> 10 µM

====

Each entry below carries its measured Ki, system: Neuronal acetylcholine receptor subunit alpha-2 (Rattus norvegicus).
Sequence (P12389 whole entry): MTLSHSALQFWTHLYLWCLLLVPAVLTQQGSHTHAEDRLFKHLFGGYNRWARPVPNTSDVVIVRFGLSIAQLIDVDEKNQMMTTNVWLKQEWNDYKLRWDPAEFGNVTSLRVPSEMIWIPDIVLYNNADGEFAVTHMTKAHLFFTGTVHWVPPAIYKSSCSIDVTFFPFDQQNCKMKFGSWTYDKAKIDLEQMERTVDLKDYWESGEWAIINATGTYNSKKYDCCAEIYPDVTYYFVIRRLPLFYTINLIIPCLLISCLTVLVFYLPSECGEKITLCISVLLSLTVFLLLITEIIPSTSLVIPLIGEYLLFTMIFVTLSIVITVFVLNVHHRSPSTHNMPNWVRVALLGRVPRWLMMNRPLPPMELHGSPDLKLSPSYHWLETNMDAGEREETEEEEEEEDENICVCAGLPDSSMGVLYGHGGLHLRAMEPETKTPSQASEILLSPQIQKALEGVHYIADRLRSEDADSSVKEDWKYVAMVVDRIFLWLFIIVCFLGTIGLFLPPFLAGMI
Answers are plain numbers, in µM.

Please report the recorded Ki for CC(=O)OCC[N+](C)(C)C .
0.011

Let's switch to this compound now.
Please report the recorded Ki for c1cncc(OCC2CCN2)c1 (stereo not given) [A-85380] .
0.018
